Each entry below carries its reported pIC50.
- study-system: Monoglyceride lipase (Homo sapiens)
- Sequence (Q99685 whole entry): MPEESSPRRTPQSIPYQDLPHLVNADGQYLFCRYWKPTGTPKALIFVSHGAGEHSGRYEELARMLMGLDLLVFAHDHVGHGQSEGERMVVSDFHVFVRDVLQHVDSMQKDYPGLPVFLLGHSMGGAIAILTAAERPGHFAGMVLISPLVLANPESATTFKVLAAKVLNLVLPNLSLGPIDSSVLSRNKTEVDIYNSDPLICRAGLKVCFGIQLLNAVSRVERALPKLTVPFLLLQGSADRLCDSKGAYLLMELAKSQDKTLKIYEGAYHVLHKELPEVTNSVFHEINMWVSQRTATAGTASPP
- experiment-notes: Inhibition of recombinant human MAGL using 7-HRA as substrate preincubated for 60 mins followed by substrate addition by fluorescence assay
- conditions-used: read-out: IC50
pIC50: −log10 of the molar value.
endpoint-label: pIC50

| structure-smiles | study-system | endpoint-label | result-number |
| --- | --- | --- | --- |
| O=C(Nc1cccc(-c2ccc(C(F)(F)F)cc2)c1)OCc1ccco1 | Monoglyceride lipase (Homo sapiens) | pIC50 | 5.17 |
| O=C(Nc1cccc(-c2ccc(C(F)(F)F)cc2)c1)OCc1ccccc1 | Monoglyceride lipase (Homo sapiens) | pIC50 | 5.35 |
| O=C(Nc1cccc(-c2ccccc2)c1)OC1CCCCC1 | Monoglyceride lipase (Homo sapiens) | pIC50 | 5.04 |
| O=C(Nc1cccc(-c2ccccc2)c1)OCc1ccccc1 | Monoglyceride lipase (Homo sapiens) | pIC50 | 4.95 |
